Test system: TK-10 renal
procedure summary: NCI tumour cell line growth inhibition, 48 h
readout: TGI

compound=Nc1nc(Cl)cc(OCC2(CO)CCCCC2)n1 measured_result="> 100 µM"
compound=CC(C)(C)c1cc([Si](C)(C)C)c(C#N)c([Si](C)(C)C)c1 measured_result="> 100 µM"
compound="Cc1ccccc1C1SCc2nc3ccccc3n21 (stereo unspecified)" measured_result="> 100 µM"

For the 8 compounds below, give their TGI values.
1. O=c1[nH]c(=O)n(C2C[C@@H](O)[C@@H](CO)O2)cc1F (stereo partly specified)
2. CC(C)Cc1cc(-c2cccn2C)c(C#N)c(=O)[nH]1
3. Cc1cccc(N=Nc2ccc(O)c(CN(C)C)c2)c1
4. CC(C)(C)c1ccc(OCCOc2ccc(C(C)(C)C)cc2NC=O)c(NC=O)c1
5. Nc1ccc(Oc2ccc(C34CC5CC(C3)CC(c3ccc(Oc6ccc(N)c(O)c6)cc3)(C5)C4)cc2)cc1O
6. CC(C)C(C=O)C(O)(C(F)(F)F)C(F)(F)F (stereo unspecified)
7. O=C1NC(=O)/C(=C/c2ccc3nccc(-c4ccncc4)c3c2)S1
8. CCOC1=C2N=C(C(CC)c3ccc(F)cc3)N=C2C(=O)c2ccccc21 (stereo unspecified)

> 100 µM
> 100 µM
72.4 µM
> 100 µM
> 20.3 µM
> 100 µM
1.24 µM
66.7 µM

###

System: CAKI-1 renal
procedure summary: NCI tumour cell line growth inhibition, 48 h; in the data active means GI50 below about 0.43 µM; inactive means the rest
In this exercise, the only acceptable responses are TRUE (active), FALSE (inactive)

Which outcome did this test record for the compound c1ccc(OCC[P+](c2ccccc2)(c2ccccc2)c2ccccc2)cc1 ?
FALSE

Write down the call the test reported for this compound. Item: C[C@H]1O[C@@H](O[C@H]2[C@@H](O)C[C@H](O[C@H]3[C@@H](O)C[C@H](O[C@H]4CC[C@]5(C)C6CC[C@]7(C)[C@@H](C8=CC(=O)OC8)CC[C@]7(O)C6CC[C@@H]5C4)O[C@@H]3C)O[C@@H]2C)C[C@H](O)[C@@H]1O (some centres undefined)
TRUE

###

Tested on: HOP-92 NSCLC
procedure summary: NCI tumour cell line growth inhibition, 48 h
readout: GI50

compound="COC1C[C@H](O[C@@H]2C[C@H](O[C@@H]3C[C@H](O[C@@H]4C(=O)c5c(cc6cc(O[C@H]7C[C@@H](O[C@H]8C[C@@H](O)[C@H](O)C(C)O8)[C@H](O)C(C)O7)c(C)c(O)c6c5O)C[C@H]4C(OC)C(=O)[C@@H](O)[C@@H](C)O)OC(C)[C@H]3O)OC(C)[C@@H]2O)OC(C)[C@@H]1O (stereo partly drawn)" readout=GI50 measured_result="0.0551 µM"
compound=O=C(Nc1n[nH]c2cc(-c3ccc(F)cc3)ccc12)C1CC1 readout=GI50 measured_result="23.3 µM"

Now look at this one.
Find the recorded GI50 belonging to c1ccc2c(c1)CCCc1nnc3nc4ccccc4n3c1-2 and report it.
9.53 µM

###

System: SF-295 CNS
procedure summary: NCI tumour cell line growth inhibition, 48 h
Please go through the items and note down their TGI.

As a guide, the following entries are already answered.
compound=Cn1c(=Nc2ccccc2[N+](=O)[O-])sc2ccccc21 measured_result="> 100 µM"
compound=O=S1(=O)CC#CC[C@@H](CO)[C@@H](CO)CC#CC1 measured_result="> 100 µM"
compound=COC(=O)[C@@]1(Cc2ccc(OC(C)=O)cc2)Cc2cc3ccccc3n2N1 measured_result="> 100 µM"
compound="COc1c(C(=O)CC2c3c(cc4oc(C)cc(=O)c4c3OC)OC(=N)C2c2nc3ccccc3[nH]2)c(O)c(OC)c2occc12 (stereo not given)" measured_result="> 100 µM"
compound=Nc1[nH]c(=S)[nH]c(=O)c1N=Nc1c(Br)cc(S(N)(=O)=O)cc1Br measured_result="> 100 µM"
compound="C[C@]12CC[C@@H]3c4cc(C=O)c(OCc5ccccc5)cc4CC[C@H]3[C@@H]1CCC2OCc1ccccc1 (stereo not given in full)" measured_result="> 100 µM"
compound=O=C1NC(=O)/C(=C/c2ccc3nccc(-c4ccncc4)c3c2)S1 measured_result="2.13 µM"
compound="O=C1C2=C(c3ccccc31)C(c1ccc([N+](=O)[O-])cc1)NC(=S)N2 (stereo not given)" measured_result="> 100 µM"

// batch mode: one TGI value per listed entry
1. COc1ccc2cc(CNCCOCCOCCNCc3ccc4cc(OC)ccc4c3)ccc2c1
2. CCC(/C(=N/NC(=O)C[N+](C)(C)C)c1ccccc1)C1OC(=O)c2ccccc21 (stereo not given)

2.59 µM
> 100 µM

Values compiled from PubChem BioAssay (NCI).
